Where these numbers come from: patent US12458597B2

# method_description: Maximum solubility of trans-crocetin sodium in aqueous media
# Assay type: physicochemical
# experimental_setup: 5% dextrose (aqueous medium), saline or isotonic; in 5% dextrose
readout_type: solubility (mg/mL)
One number for each entry, in mg/mL.

INPUT: Let me know recorded solubility for CC(/C=C/C=C(\C)C(=O)O)=C\C=C\C=C(C)\C=C\C=C(/C)C(=O)O [STC free drug, sodium trans-crocetinate] , thanks.
OUTPUT: 0.7

====

# method_description: Liposomal CTC and MTC PK in mice, plasma STC by HPLC
# Assay type: in vivo
# experimental_setup: mouse, Balb/c mice, single dose, slow intravenous bolus
readout_type: Cmax (µg/mL)
Give bare numbers, in µg/mL.

INPUT: Let me know recorded Cmax for CC(/C=C/C=C(\C)C(=O)O)=C\C=C\C=C(C)\C=C\C=C(/C)C(=O)O [STC free drug, sodium trans-crocetinate] , thanks.
OUTPUT: 360

====

# method_description: Liposomal CTC and MTC PK in mice, plasma STC by HPLC
# Assay type: in vivo
# experimental_setup: Balb/c, mouse, iv, single dose, slow intravenous bolus, plasma over 24 hour
readout_type: half-life
# answer = value followed by unit

INPUT: Let me know recorded half-life for CC(/C=C/C=C(\C)C(=O)O)=C\C=C\C=C(C)\C=C\C=C(/C)C(=O)O [STC free drug, sodium trans-crocetinate] , thanks.
OUTPUT: 21 min
